Origin of measurements: patent US7582803B2

# measured on: human GPR40 (Homo sapiens)
# Sequence (O14842 whole entry): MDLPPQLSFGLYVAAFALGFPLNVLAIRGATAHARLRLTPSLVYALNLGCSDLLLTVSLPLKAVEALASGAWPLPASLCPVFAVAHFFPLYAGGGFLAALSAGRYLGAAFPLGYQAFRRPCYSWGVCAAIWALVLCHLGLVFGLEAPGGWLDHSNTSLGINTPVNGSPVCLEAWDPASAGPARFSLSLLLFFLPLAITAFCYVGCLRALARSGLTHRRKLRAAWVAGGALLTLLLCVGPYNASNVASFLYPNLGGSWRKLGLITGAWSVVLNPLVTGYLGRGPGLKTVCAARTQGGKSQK
# protocol summary: Cell-based aequorin assay
# condition: CHO cells stably transfected with GPR40 and aequorin; 0.01% HSA; aequorin luminescence; read-out: Relative EC50
pEC50: −log10 of the molar value.
So I've got a bunch of compounds here, and I need their pEC50 values.

[in] // pEC50 lookup, key: COc1ccc(F)c(-c2ccc3c(c2)CCC3Oc2ccc([C@H](C=C(C)C)CC(=O)O)cc2)c1 (some centres unmarked)
[out] 5.00 to 6.00

[in] Now try CC1(C)CCC(C)(C)c2cc(COc3ccc([C@@H](CC(=O)O)c4ccon4)cc3)ccc21 .
[out] 5.00 to 6.00

[in] Now try CC#CC(CC(=O)O)c1ccc(OC2CCC(c3ccccc3)CC2)cc1 (centres unmarked) .
[out] 6.00 to 7.00

[in] Now try CC1(C)CCC(C)(C)c2cc(COc3ccc(C(CC(=O)O)c4cncnc4)cc3)ccc21 (racemic) .
[out] 5.00 to 6.00

[in] Now try CC#C[C@@H](CC(=O)O)c1ccc(OC2CCc3c(-c4cccc(OCC)c4)cccc32)cc1 (some centres unmarked) .
[out] 5.00 to 6.00

[in] Now try COc1ccc(F)c(-c2ccc3c(c2)CCC3Oc2ccc([C@@H](C=C(C)C)CC(=O)O)cc2)c1 (some centres unmarked) .
[out] 6.00 to 7.00

[in] Now try Cn1ccnc1[C@@H](CC(=O)O)c1ccc(OCc2cc3c(cc2C2CC2)C(C)(C)CCC3(C)C)cc1 .
[out] < 5.00

[in] Now try CC1(C)CCC(C)(C)c2cc(COc3ccc([C@@H](CC(=O)O)c4ccc(F)cc4)cc3)ccc21 .
[out] 5.00 to 6.00
